Cited source: ChEMBL document CHEMBL3784918

Could you please report measured remaining at 0.5 h, 1 µM for the items listed next?
Assay: Metabolic stability of the compound in mouse liver microsomes assessed as compound remaining at 1 uM after 30 mins by LC/MS/MS analysis in the presence of NADPH
Format: ADME
Settings: read-out: Stability
Give the value in % but do not write % after it.

Data point: COc1cc2c(cc1Nc1ncc(Cl)c(Nc3ccccc3S(=O)(=O)C(C)C)n1)CCC(N)C2(C)C (configuration not stated) ; remaining at 0.5 h, 1 µM = 23

Looking up COc1cc2c(cc1Nc1ncc(Cl)c(Nc3ccccc3S(=O)(=O)C(C)C)n1)CC/C(=N\N1CCN(C)CC1)C2(C)C , I found its remaining at 0.5 h, 1 µM recorded as 14
